Data origin, for the record: paper PMC5540273

System: JAK1(JH1domain-catalytic);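 further: KINOMEscan kinase panel screen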
Details: concentration: 1 μM,replicates: in singlicate; n = 1
readout-type: %Inh (%)
Answers are plain numbers, in %.

Solved cases below.
{"columns": ["compound", "%Inh [%]"],
 "data": [
  ["CN(C)CCOc1ccc(-c2cc(-c3c[nH]nc3-c3ccccn3)ccn2)cc1", 0],
  ["Cc1ccc2c(-c3ccncc3)c(-c3ccc(F)cc3)nn2c1.Cl", 11]
]}

Hi there! I need %Inh for each item below, if you can.
1. Cc1n[nH]c2ccc(-c3cc(OC[C@@H](N)Cc4ccccc4)cnc3-c3ccoc3)cc12.O=C(O)C(F)(F)F.O=C(O)C(F)(F)F
2. Cl.Cl.NC[C@H](Cc1ccc(C(F)(F)F)cc1)NC(=O)c1cc(Br)c(-c2ccnc3[nH]ccc23)s1

1. 0
2. 9
